# test: viability loss with induced miR-34 in A549 – imaging, A549 dox-inducible miR-34, nuclei and caspase counts, primary screen (AID 1347080); further: test concentration not given here
# measurement-setup: A549 miR-34 inducible, Hoechst nuclei count, 48 h; measured here: total cells without miR-34 induction
Our labelling divides records by cell count into ranges: lower bin (below 9000), middle bin (9000 to below 10000), upper bin (10000 or more)

- COc1cc(F)c(-c2nc3c(cnn3Cc3cccs3)[nH]2)c(F)c1: lower bin
- CC(c1cccc(O)c1)N(C)C (stereo not given): middle bin
- COc1cc(CC2COC(=O)C2Cc2ccc(O)c(OC)c2)ccc1O (stereo not given): middle bin
- NC(=NCc1ccc(Cl)cc1Cl)NC(=O)c1nc(Cl)c(N)nc1N: lower bin
- Cc1ccc(C(=O)N2CCC(Cc3ccccc3)CC2)cc1: lower bin
- CC(C)c1nc(N(C)S(C)(=O)=O)nc(-c2ccc(F)cc2)c1C=CC(O)CC(O)CC(=O)O (stereo not given): lower bin
- CCn1c2ccccc2c2cc(CNC)ccc21: lower bin
- NC1(C(=O)O)CCc2cc(C(=O)O)ccc21 (stereo not given): upper bin
- CCC(C)C(=O)OC1CC(O)C=C2C=CC(C)C(CCC(O)CC(O)CC(=O)O)C21 (stereo not given): upper bin
